# tgt: recombinant human lysophosphatidylcholine acyltransferase 3 (rhLPCAT3) (Homo sapiens)
# Construct: human LPCAT3 (BC065194.1) with HRV 3C site and C-terminal Twin-strep-tag, expressed in Sf9 cells, purified in DDM
# Sequence (Q6P1A2 2-487): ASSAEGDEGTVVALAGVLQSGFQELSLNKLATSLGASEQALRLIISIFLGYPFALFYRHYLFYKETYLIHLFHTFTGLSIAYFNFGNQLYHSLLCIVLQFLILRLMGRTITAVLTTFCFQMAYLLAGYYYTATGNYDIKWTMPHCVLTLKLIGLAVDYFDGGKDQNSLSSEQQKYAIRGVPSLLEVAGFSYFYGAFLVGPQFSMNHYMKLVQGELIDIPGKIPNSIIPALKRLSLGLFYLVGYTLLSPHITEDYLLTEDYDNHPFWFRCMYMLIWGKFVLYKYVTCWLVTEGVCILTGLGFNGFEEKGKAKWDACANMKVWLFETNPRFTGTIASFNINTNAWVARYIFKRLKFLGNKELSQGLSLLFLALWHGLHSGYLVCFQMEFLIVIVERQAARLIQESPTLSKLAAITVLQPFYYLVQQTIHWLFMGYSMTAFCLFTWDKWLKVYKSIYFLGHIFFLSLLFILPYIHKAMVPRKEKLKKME
# method summary: reversed-phase HPLC fluorescence assay of NBD-PC formation by purified rhLPCAT3
endpoint name: IC50
Returns: string containing the number followed by the unit.

Ask: State the recorded IC50 for this entry: CCCOC(=O)c1ccc(N2C(=O)C(Cl)=C(Cl)C2=O)cc1 [TSI-10]
Result: 174 µM

Data credit: paper PMC6768109
